- Tested on: Glutamate receptor ionotropic, NMDA 3A (GRIN3A) ligand-binding domain
- protocol.summary: binders of NR3A ligand-binding domain, primary screen, biophysical, differential scanning fluorimetry, uHTS (AID 1259313)
- test.conditions: NR3A LBD differential scanning fluorimetry, at 25 µM, 0% = protein alone, 100% = glycine-bound protein
Among all 340,000 compounds or so, about 8,500 (2.5%) were called active.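 The calls were made as follows: active = melting temperature shift of at least 10% of the positive control shift, at one fixed dose; inactive = the rest.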 The list comes from a sample in which actives are over-represented; it also holds close analogues and randomly drawn compounds.
Outcome codes: active, inactive

• Cc1ccc(C(=O)NNC(=O)c2cccs2)cc1 = inactive
• O=C(Nc1ccc(-c2nnc(-c3ccccc3)o2)cc1)c1ccc(Br)o1 = active
• Cc1cccc(C(=O)Nc2ccc(C(=O)/C=C/c3cccs3)cc2)c1 = active
• CCOc1ccccc1NC(=O)Cn1ncc2ccc([N+](=O)[O-])cc21 = inactive
• Brc1ccc(-c2nnc(-c3ccccc3)o2)o1 = inactive
• CC(=O)c1cccc(NC(=S)N2CCN(S(C)(=O)=O)CC2)c1 = inactive
• COc1ccc2nc(SCC(=O)Nc3c(C)cc(C)cc3C)[nH]c2c1 = inactive
• O=C(c1ccccc1)C(Cn1cncn1)C(Sc1ccccc1)c1ccccc1 (stereo unspecified) = inactive
• Cc1ccc(OCC(=O)Nc2ccc(NC(=O)c3cccs3)cc2)c(C)c1 = inactive
• Cc1cccc(C(=O)Nc2ccc(CC(=O)O)cc2)c1 = inactive
• Cc1ccc(C(=O)Nc2ccc(NC(=O)c3cccs3)cc2)c(C)c1 = active

---

- Test system: Glutamate receptor ionotropic, NMDA 3A (GRIN3A) ligand-binding domain
- protocol.summary: binders of NR3A ligand-binding domain, primary screen, biophysical, differential scanning fluorimetry, uHTS (AID 1259313)
- test.conditions: NR3A LBD differential scanning fluorimetry, at 25 µM, active compounds read high, 0% = protein alone, 100% = glycine-bound protein
Among all 340,000 compounds or so, about 8,500 (2.5%) were called active. The list comes from a sample in which actives are over-represented; it also holds close analogues and randomly drawn compounds.
Listing: Tm shift relative to glycine control of selected compounds
readout.label: Tm shift relative to glycine control (%)

• COc1ccc(OC)c(NC(=O)C2CCCN2S(=O)(=O)c2cccc3nsnc23)c1 (stereo not given) = 13.4
• O=C(NC(Cc1ccc(O)cc1)C(=O)O)/C(=C/c1ccccc1)NC(=O)c1ccccc1 (stereo not given) = -1.28
• COc1cc(C2c3cc4c(cc3C(O)C3COC(=O)C23)OCO4)cc(OC)c1OC (stereo not given) = 0.33
• CCC1([N+](=O)[O-])COC(c2ccc(C)cc2)OC1 (stereo not given) = -10.1
• C=C(C)Cn1c(C)cc(C)c(S(=O)(=O)c2ccccc2C)c1=O = 2.34

---

Listing: Tm shift relative to glycine control of selected compounds
- System: Glutamate receptor ionotropic, NMDA 3A (GRIN3A) ligand-binding domain
- protocol.summary: binders of NR3A ligand-binding domain, primary screen, biophysical, differential scanning fluorimetry, uHTS (AID 1259313)
- test.conditions: NR3A LBD differential scanning fluorimetry, at 25 µM, active compounds read high, 0% = protein alone, 100% = glycine-bound protein
Out of some 340,000 compounds screened, about 8,500 (2.5%) were called active. Many of the other results were omitted from the sample, so actives are more common in it than they were.
readout.label: Tm shift relative to glycine control (%)

* COc1ccc(S(=O)(=O)N2CCN(c3ncnc4c(-c5ccccc5)nsc34)CC2)cc1 | -1.19
* Cn1ccc(=NC=C(C#N)C#N)c2ccccc21 | -0.6
* COc1ccccc1N1CC(C(=O)Nc2nnc(SCC(=O)NCC3CCCO3)s2)CC1=O (stereo not given) | 0.09
* O=C(O)C(c1ccccc1)N1C(=O)/C(=C\c2ccc(-c3cccc(Cl)c3)o2)SC1=S (stereo not given) | 27.7
* Cn1cccc1/C=C1\SC(=S)N(NC(=O)c2ccc(Cl)cc2)C1=O | 8.58
